B1: 5KPH (parent)
chain: EEKRQVKQVAKEKLLEQSPNSKVQVRRVQKQGNTIRVELELRTNGKKENYTVEVERQGNTWTVKRITRT

Variants of: B1
EXPERIMENT_DESCRIPTION: folding stability dG (cDNA display proteolysis); higher = more stable
COND: PBS, room temperature
Exercise: for every item that follows, state its recorded folding stability dG.
Numbers only, in kcal/mol.

Reference set, count: 10
BIOPOLYMER_SEQUENCE	folding stability dG (kcal/mol)
EEKRQVKQVAKEKVLEQSPNSKVQVRRVQKQGNTIRVELELRTNGKKENYTVEVERQGNTWTVKRITRT	3.65
EEKRQVKSVAKEKLLEQSPNSKVQVRRVQKQGNTIRVELELRTNGKKENYTVEVERQGNTWTVKRITRT	3.55
EEKRQVKQVAKEKLLEQSPNSKVQVRRVQKQGNTIRVELELRTNGKKENYTVENERQGNTWTVKRITRT	0.723
EEKRQVKQVAKEKLLEQSPNSKVQVRRVQKQGNTIRVELELRTNGKKENYTVEVERQGNSWTVKRITRT	4.13
PEKRQVKQVAKEKLLEQSPNSKVQVRRVQKQGNTIRVELELRTNGKKENYTVEVERQGNTWTVKRITRT	3.19
EEKRQVKQVAKEKLLEQSPNSKVQVRRVCKQGNTIRVELELRTNGKKENYTVEVERQGNTWTVKRITRT	3.9
EEKRPVKQVAKEKLLEQSPNSKVQVRRVQKQGNTIRVELELRTNGKKENYTVEVERQGNTWTVKRITRT	2.86
EEKRQVKYVAKEKLLEQSPNSKVQVRRVQKQGNTIRVELELRTNGKKENYTVEVERQGNTWTVKRITRT	2.78
EEKRQVKQVAKEKLLEQSPNSKVQVRRVQKQGNTIRVELELRTNGKKENYTVEVERQGNTWTVKRITRH	4.21
EEKRQVKQVAKEKLLEQSPNSKVQVRRVQKQGNTIRVELESRTNGKKENYTVEVERQGNTWTVKRITRT	3.24

Report folding stability dG for every entry below.
1. EEKRGVKQVAKEKLLEQSPNSKVQVRRVQKQGNTIRVELELRTNGKKENYTVEVERQGNTWTVKRITRT
2. EEKRQVKQVAKEKLLEQSPNSKVAVRRVQKQGNTIRVELELRTNGKKENYTVEVERQGNTWTVKRITRT

1: 3.64; 2: 3.97
